# experimental system: CD28 (Homo sapiens, UniProt P10747)
# procedure text: Flow binding to Jurkat/IL2 reporter cells (CD28)
# Design: host or cells: Jurkat cells expressing an IL-2-luciferase reporter
# condition summary: Table E11; 33.3 nM; listed as WT CD80 ECD-Fc = 1.0
quantity name: CD28 Fold change to WT CD80

[[record]]
molecule = "T13R/Q33R/E35D/M38I/M47L/V68M/E95V/L97Q (protein, UniProt P33681 35-288, looked up, variant T13R Q33R E35D M38I M47L V68M E95V L97Q) T-lymphocyte activation …: VIHVTKEVKEVARLSCGHNVSVEELAQTRIYWRKDKKIVLTMMSGDLNIWPEYKNRTIFDITNNLSIMILALRPSDEGTYECVVLKYEKDAFKRVHQAEVTLSVKADFPTPSISDFEIPTSNIRRIICSTSGGFPEPHLSWLENGEELNAINTTVSQDPETELYAVSSKLDFNMTTNHSFMCLIKYGHLRVNQTFNWNTTKQEHFPDNLLPSWAITLISVNGIFVICCLTYCFAPRCRERRRNERLRRESVRPV"
endpoint_value = 35.4


Where these numbers come from: patent US20220177587A1
